Test system: IL-1α
Test: Inhibition of IL-1 production by stimulated human peripheral blood leukocytes in vitro
Assay type: cell-based
Details: Homo sapiens, Leukocyte, 10 μM; PMA-stimulated PBL; read-out: Percentage of inhibition of IL-1α production
Give inhibition at 10 µM for every item shown.
One number for each entry, in %.

Below: 3 compounds and their reported inhibition at 10 µM.
compound	tgt	inhibition at 10 µM (%)
CC[C@H]1OC(=O)[C@H](C)[C@@H](O[C@H]2C[C@@](C)(OC)[C@@H](OC(=O)CCNC(C)C)[C@H](C)O2)[C@H](C)[C@@H](O[C@@H]2O[C@H](C)C[C@H](N(C)C)[C@H]2O)[C@](C)(OC)C[C@@H](C)C(=O)N[C@H](C)[C@@H](O)[C@]1(C)O	IL-1α	12
CC[C@H]1OC(=O)[C@H](C)[C@@H](O[C@H]2C[C@@](C)(OC)C(OC(=O)CCN(CC)CC)[C@H](C)O2)[C@H](C)[C@@H](O[C@@H]2O[C@H](C)C[C@H](NC)[C@H]2O)[C@](C)(O)C[C@@H](C)CN(C)[C@H](C)[C@@H](O)[C@]1(C)O (stereo partly shown)	IL-1α	61
CC[C@H]1OC(=O)[C@H](C)[C@@H](O[C@H]2C[C@@](C)(OC)[C@@H](OCCCN(CC)CC)[C@H](C)O2)[C@H](C)[C@@H](O[C@@H]2O[C@H](C)C[C@H](N(C)C)[C@H]2O)[C@](C)(O)C[C@@H](C)CN(C)[C@H](C)[C@@H](O)[C@]1(C)O	IL-1α	32

Next:
# lookup: inhibition at 10 µM of CC[C@H]1OC(=O)[C@H](C)[C@@H](O[C@H]2C[C@@](C)(OC)[C@@H](OC(=O)CCN3CCN(CC4CCCN(C)C4)CC3)[C@H](C)O2)[C@H](C)[C@@H](O[C@@H]2O[C@H](C)C[C@H](N(C)C)[C@H]2O)[C@](C)(OC)C[C@@H](C)C(=O)N[C@H](C)[C@@H](O)[C@]1(C)O (stereo partly shown)
33

====

Test system: IL-1α
Experiment: Inhibition of IL-1 production by stimulated human peripheral blood leukocytes in vitro
Assay type: cell-based
Conditions: Homo sapiens, Leukocyte, 10 μM; PMA-stimulated PBL; read-out: Percentage of inhibition of IL-1α production
Give inhibition at 10 µM for every item shown.
One number for each entry, in %.

molecule	tgt	inhibition at 10 µM, %
CC[C@H]1OC(=O)[C@H](C)[C@@H](OC2C[C@@](C)(OC)[C@@H](OC(=O)CCN3CCNCC3)[C@H](C)O2)[C@H](C)[C@@H](OC2O[C@H](C)C[C@H](N(C)C)[C@H]2O)[C@](C)(OC)C[C@@H](C)C(=O)[C@H](C)[C@@H](O)[C@]1(C)O (some centres unmarked) [Example 50]	IL-1α	0

Next:
# lookup: inhibition at 10 µM of CC[C@H]1OC(=O)[C@H](C)[C@@H](O[C@H]2C[C@@](C)(OC)[C@@H](OC(=O)CCN(C)C)[C@H](C)O2)[C@H](C)[C@@H](O[C@@H]2O[C@H](C)C[C@H](N(C)C)[C@H]2O)[C@](C)(OC)C[C@@H](C)C(=O)N[C@H](C)[C@@H](O)[C@]1(C)O [Example 12]
45

====

Give Percentage of inhibition of IL-6 production for every item shown.
Tested on: IL-6
Experiment: Inhibition of IL-6 production by stimulated human peripheral blood leukocytes in vitro
Type: cell-based
Settings: 10 μM; zymosan-stimulated PBL
Answers are plain numbers, in %.

Below: 3 molecules and their reported Percentage of inhibition of IL-6 production.
molecule	tgt	numeric-result
CC[C@H]1OC(=O)[C@H](C)[C@@H](O[C@H]2C[C@@](C)(OC)[C@@H](OCCCN(CC)CC)[C@H](C)O2)[C@H](C)[C@@H](O[C@@H]2O[C@H](C)C[C@H](N(C)C)[C@H]2O)[C@](C)(O)C[C@@H](C)CN(C)[C@H](C)[C@H]2OC(=O)O[C@@]21C	IL-6	18
CCC1OC(=O)C(C)C(OC2CC(C)(OC)C(OCCCN3CCN(CCN(CC)CC)CC3)C(C)O2)C(C)C(OC2OC(C)CC(N(C)C)C2O)C(C)(O)CC(C)CN(C)C(C)C2OC(=O)OC12C (stereo not shown)	IL-6	9
CCC1OC(=O)C(C)C(OC2CC(C)(OC)C(OC(=O)CCN(CC)CC)C(C)O2)C(C)C(OC2OC(C)CC(N(C)C)C2O)C(C)(OC)CC(C)C(=O)NC(C)C(O)C1(C)O (stereo not shown)	IL-6	57

# lookup: Percentage of inhibition of IL-6 production of CCC(=O)N(C)[C@H]1C[C@@H](C)O[C@@H](O[C@@H]2[C@@H](C)[C@H](O[C@H]3C[C@@](C)(OC)[C@@H](OC(=O)CCN(CC)CC)[C@H](C)O3)[C@@H](C)C(=O)O[C@H](CC)[C@@](C)(O)[C@H](O)[C@@H](C)NC(=O)[C@H](C)C[C@@]2(C)OC)[C@@H]1O
0

====

Test system: TNF-α
Assay: Inhibition of TNF-α production by stimulated human peripheral blood leukocytes in vitro
Format: cell-based
Conditions: Homo sapiens, Leukocyte, 50 μM; PMA-stimulated PBL; read-out: Percentage of inhibition of TNF-α production
Give inhibition at 50 µM for every item shown.
Answers are plain numbers, in %.

compound	inhibition at 50 µM / %
CC[C@H]1OC(=O)[C@H](C)[C@@H](O[C@H]2C[C@@](C)(OC)[C@@H](OCCCN(CC)CC)[C@H](C)O2)[C@H](C)[C@@H](O[C@@H]2O[C@H](C)C[C@H](N(C)C)[C@H]2O)[C@](C)(O)C[C@@H](C)CN(C)[C@H](C)[C@@H](O)[C@]1(C)O [Example 96]	48

Value wanted: inhibition at 50 µM (TNF-α) of entry CC[C@H]1OC(=O)[C@H](C)[C@@H](O[C@H]2C[C@@](C)(OC)[C@@H](OC(=O)CCN3CCN(CCCN4CCCCC4)CC3)[C@H](C)O2)[C@H](C)[C@@H](O[C@@H]2O[C@H](C)C[C@H](N(C)C)[C@H]2O)[C@](C)(OC)C[C@@H](C)C(=O)N[C@H](C)[C@@H](O)[C@]1(C)O [Example 22]
55

====

System: human peripheral blood mononuclear cells (PBMC)
Assay: Effects on human T-cell proliferation in vitro (3H-thymidine incorporation)
Format: cell-based
Conditions: Homo sapiens, PBMC, PMA + iono.; 10 μM; read-out: Percentage of inhibition of proliferation of stimulated PBMC
Give inhibition at 10 µM for every item shown.
Numbers only, in %.

compound	quantity-name	numeric-result
CC[C@H]1OC(=O)[C@H](C)[C@@H](O[C@H]2C[C@@](C)(OC)[C@@H](OC(=O)CCN(CC)CC)[C@H](C)O2)[C@H](C)[C@@H](O[C@@H]2O[C@H](C)C[C@H](N(C)C)[C@H]2O)[C@](C)(OC)C[C@@H](C)C(=O)[C@H](C)[C@H]2N(C)C(=O)O[C@]12C	inhibition at 10 µM	3
CC[C@H]1OC(=O)[C@H](C)[C@@H](O[C@H]2C[C@@](C)(OC)[C@@H](OC(=O)CCN3CCCN(CCCN4CCCC4)CC3)[C@H](C)O2)[C@H](C)[C@@H](O[C@@H]2O[C@H](C)C[C@H](N(C)C)[C@H]2O)[C@](C)(OC)C[C@@H](C)C(=O)N[C@H](C)[C@@H](O)[C@]1(C)O	inhibition at 10 µM	0
CC[C@H]1OC(=O)[C@H](C)[C@@H](O[C@H]2C[C@@](C)(OC)[C@@H](OC(=O)CCN(CC)CC)[C@H](C)O2)[C@H](C)[C@@H](O[C@@H]2O[C@H](C)C[C@H](N(C)C)[C@H]2O)[C@](C)(O)C[C@@H](C)NC(=O)[C@H](C)[C@@H](O)[C@]1(C)O	inhibition at 10 µM	1
CC[C@H]1OC(=O)[C@H](C)C(O[C@H]2C[C@@](C)(OC)[C@@H](OC(=O)CCN(CC)CC)[C@H](C)O2)[C@H](C)[C@@H](O[C@@H]2O[C@H](C)C[C@H](N(C)C)[C@H]2O)[C@](C)(OC)C[C@@H](C)C(=O)[C@H](C)[C@H](O)[C@]1(C)O (some centres unmarked)	inhibition at 10 µM	24

# lookup: inhibition at 10 µM of CC[C@H]1OC(=O)[C@H](C)[C@@H](O[C@H]2C[C@@](C)(OC)[C@@H](O)[C@H](C)O2)[C@H](C)[C@@H](O[C@@H]2O[C@H](C)C[C@H](N(C)C)[C@H]2O)[C@](C)(O)C[C@@H](C)CN(C)[C@H](C)[C@@H](O)[C@]1(C)O [azithromycin, reference compound]
9

====

Give inhibition at 10 µM for every item shown.
Tested on: IL-8
Assay: Inhibition of IL-8 production by stimulated human peripheral blood leukocytes in vitro
Assay type: cell-based
Details: Homo sapiens, Leukocyte, 10 μM; LPS-stimulated PBL; read-out: Percentage of inhibition of IL-8 production
Experimental: Test substances used in in vitro experiments were dissolved in dimethyl sulfoxide (DMSO) (Kemika, Croatia) at concentrations of 50 mM and 10 mM, and were further diluted to final concentrations of 50 μM and 10 μM in 1 mL Dulbecco's modified Eagle medium (DMEM) supplemented with 1% heat inactivated fetal bovine serum (FBS), 1% L-glutamine, 50 U/ml penicillin, 50 μg/ml streptomycin and 2.5 μg/mL Fungizone (amphotericin B). […]
Give bare numbers, in %.

Below: 4 molecules and their reported inhibition at 10 µM.
molecule	quantity-name	readout-units	numeric-result
CC[C@H]1OC(=O)[C@H](C)[C@@H](O[C@H]2C[C@@](C)(OC)[C@@H](OC(=O)CCNC(C)C)[C@H](C)O2)[C@H](C)[C@@H](O[C@@H]2O[C@H](C)C[C@H](N(C)C)[C@H]2O)[C@](C)(OC)C[C@@H](C)C(=O)N[C@H](C)[C@@H](O)[C@]1(C)O [Example 23]	inhibition at 10 µM	%	0
CC[C@H]1OC(=O)[C@H](C)[C@@H](O[C@H]2C[C@@](C)(OC)[C@@H](OC(=O)CCNC3CC3)[C@H](C)O2)[C@H](C)[C@@H](O[C@@H]2O[C@H](C)C[C@H](N(C)C)[C@H]2O)[C@](C)(OC)C[C@@H](C)C(=O)N[C@H](C)[C@@H](O)[C@]1(C)O [Example 40]	inhibition at 10 µM	%	24
CC[C@H]1OC(=O)[C@H](C)[C@@H](O[C@H]2C[C@@](C)(OC)[C@@H](OC(=O)CCN(CC)CC)[C@H](C)O2)[C@H](C)[C@@H](O[C@@H]2O[C@H](C)C[C@H](N(C)C)[C@H]2O)[C@](C)(OC)C[C@@H](C)C(=O)[C@H](C)[C@H]2N(C)C(=O)O[C@]12C [Example 10]	inhibition at 10 µM	%	27
C=CC(=O)OC1[C@H](C)O[C@@H](O[C@H]2[C@H](C)[C@@H](O[C@@H]3O[C@H](C)C[C@H](NC)[C@H]3O)[C@](C)(OC)C[C@@H](C)C(=O)N[C@H](C)[C@@H](O)[C@](C)(O)[C@@H](CC)OC(=O)[C@@H]2C)C[C@@]1(C)OC (stereo partly shown) [Example 53]	inhibition at 10 µM	%	9

Report inhibition at 10 µM for each item below.
1. CC[C@H]1OC(=O)[C@H](C)[C@@H](O[C@H]2C[C@@](C)(OC)[C@@H](O)[C@H](C)O2)[C@H](C)[C@@H](O[C@@H]2O[C@H](C)C[C@H](N(C)C)[C@H]2O)[C@](C)(OC)C[C@@H](C)C(=O)[C@H](C)[C@@H](O)[C@]1(C)O [clarithromycin, reference compound]
2. CC[C@H]1OC(=O)[C@H](C)[C@@H](O[C@H]2C[C@@](C)(OC)[C@@H](OC(=O)CCN(C)C)[C@H](C)O2)[C@H](C)[C@@H](O[C@@H]2O[C@H](C)C[C@H](N(C)C)[C@H]2O)[C@](C)(OC)C[C@@H](C)C(=O)N[C@H](C)[C@@H](O)[C@]1(C)O [Example 12]
3. CC[C@H]1OC(=O)[C@H](C)[C@@H](O[C@H]2C[C@@](C)(OC)[C@@H](OC(=O)CCN3CCN(CCOCCO)CC3)[C@H](C)O2)[C@H](C)[C@@H](O[C@@H]2O[C@H](C)C[C@H](N(C)C)[C@H]2O)[C@](C)(OC)C[C@@H](C)C(=O)N[C@H](C)[C@@H](O)[C@]1(C)O [Example 18]

1. 23
2. 7
3. 6

Where do these numbers come from? They come from patent US8080529B2.
